- PROCEDURE_TEXT: NCI Yeast Anticancer Drug Screen. Data for the sgs1 mgt1 strain (AID 161);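 note: 0% = growth of cultures given vehicle only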
- MEASUREMENT_PARAMETERS: S. cerevisiae sgs1 mgt1 strain, at 50.0 µM, active compounds read high
About 79,000 compounds went through this panel and 15% of them were active in at least one assay; those are over-represented in the sample as a whole.
What growth inhibition was measured for each of the following?
A number alone suffices; assume %.

Sample `CCCOCN1COCN=C1NC#N` ; growth inhibition observed: -4.7

Quick note, growth inhibition for `Cc1ccc(S(=O)(=O)Oc2ccccc2C(=O)O)cc1` landed at -12.3

Value of measured growth inhibition for the entry `Cc1ccc(C)c(NC(=O)OC/C=C/c2ccccc2)c1` : 19.9

According to the records, this molecule `CN(CCN(C)C(=O)CCn1cc(F)c(=O)[nH]c1=O)C(=O)CCn1cc(F)c(=O)[nH]c1=O` displays growth inhibition of 50.4

Item: `CN=C(N)SCCCCCCSC(N)=NC` | growth inhibition: 16.6

The molecule `COC(=O)c1cccc(C(=O)CC(=O)c2ccccc2)c1` showed growth inhibition equal to 8.1

* * *

Provide the reported growth inhibition of each item.
- PROCEDURE_TEXT: NCI Yeast Anticancer Drug Screen. Data for the sgs1 mgt1 strain (AID 161);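 note: 0% = growth of cultures given vehicle only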
- MEASUREMENT_PARAMETERS: S. cerevisiae sgs1 mgt1 strain, at 50.0 µM, active compounds read high
This is part of a sample that, as a whole, favours compounds with a hit. Of some 79,000 tested, about 15% had one in any assay.
Give the quantity in %, number only.

Consider `Cn1cnc([N+](=O)[O-])c1SCC(=O)O` . Its measured growth inhibition is -29.5

Looking up `CC(C)(C)NC(=O)Oc1ccc2ccccc2c1` , I see its growth inhibition listed as -6

Record summary for C=C1c2[nH]c3ccccc3c2CC(C(=O)O)N1C(O)c1ccc(S(=O)(=O)O)cc1 (stereo unspecified) : reported growth inhibition = -3.5

Just so you know, measured growth inhibition for `COc1ccc2c(c1OC)C(=O)O[C@@H]2[C@H]1c2c(cc3c(c2OC)OCO3)CCN1C` came out at -27.8

// `O=C(Nc1ccc2ccccc2c1)C(F)(F)F` : growth inhibition value = -4.25

Short answer for CNC(CCNCCc1ccccc1)CNCCc1ccccc1 (stereo unspecified) : growth inhibition was 22.8

Recorded result, `CCOc1ccc(N=Cc2c3ccccc3nc3ccccc23)cc1` , growth inhibition: -3.25

Briefly, growth inhibition measured for CC(C)C(NC(=O)C(Cc1ccccc1)NC(=O)[C@H]1CCC[C@H]1NC(=O)C(Cc1ccc(OC(C)(C)C)cc1)NC(=O)OC(C)(C)C)C(N)=O (stereo partly specified) : -15.8

Quick note, growth inhibition for CC(=O)NC(CCc1ccccc1)C(=O)O (stereo unspecified) landed at 0.9

get_value(item= `Cc1ccc(Cl)cc1NC(=O)CCc1ccccc1` , readout=growth inhibition) returns 23.6

The compound O=C1NC(c2ccccc2)C1N(Cc1ccccc1)Cc1ccccc1 (stereo unspecified) showed growth inhibition equal to 22.2

* * *

- PROCEDURE_TEXT: NCI Yeast Anticancer Drug Screen. Data for the bub3 strain (AID 167)
- MEASUREMENT_PARAMETERS: S. cerevisiae bub3 mutant strain, at 50.0 µM
Compounds without any hit were thinned out: in the full panel of roughly 79,000, 15% have a hit. Calls of active or inactive are those of the source. Rule as the data show it: active = growth inhibition above about 70%; inactive = the rest.
Would you mind answering with one of these outcomes? active, inactive

Called result for `CCOc1c(N=Nc2ccc(OC)cc2)c(C)nn1C(N)=S`
inactive

Identify the outcome logged in this assay for the compound shown: `CN(C)CCC(N)(P(=O)([O-])[O-])P(=O)([O-])[O-].N.N.[Pt+2]`
inactive

Please share the test call associated with `Oc1ccc(O)c(CCCCCc2cc(O)ccc2O)c1` .
active

Which outcome was entered for the compound `COc1ccc(C#CC(=O)O)c(OC)c1` in this test?
inactive

Recorded test outcome, item `CCCCCCCCc1cc(CN(C)C)c(O)c(C(C)(C)CC(C)(C)C)c1`
inactive

Test call, this compound: CC1(c2ccncc2)NC(=O)NC1=O (stereo not drawn)
inactive

Fill in: this test's call for `CC(=O)Nc1ccc(S(=O)(=O)CCS(=O)(=O)c2ccc(NC(C)=O)cc2)cc1` is ___
inactive

How was `O=c1[nH]nc(Cc2ccc(Cl)cc2)n1O` classified in this test?
inactive

Field: outcome | Entry: `Cc1ccc(-c2cc(C(=O)NN)c(C#N)c(=O)[nH]2)cc1`
inactive

Called result for `O=C(O)CCc1ccccc1CC(=O)O`
inactive

Tell me the assay call for O/N=C1\CC2CC1C1CC3(CC3)C21 (stereo not drawn) please.
inactive

What outcome does the record of this test show for `CC(C)(CCC(=O)O)CCC(=O)O` ?
inactive

Given CC(C)CCOC(=O)C1C(=O)CC(c2ccccc2)C1c1ccccc1 (stereo not drawn) , state the outcome it received in this test.
inactive
